src = ChEMBL document CHEMBL3112582

Notes on IC50 obtained with Serine/threonine-protein kinase mTOR (Homo sapiens, UniProt P42345).
Give just the number in nM; leave the unit off.

1. COc1ccc(S(=O)(=O)Nc2cc(-c3cc4c(C)nc(N)cc4n(C4CCCC4)c3=O)cnc2OC)cc1
65.6
2. COc1ccc(-c2cc3c(C)nc(N)nc3n(C3CCCC3)c2=O)cn1
30.1
3. Cc1nc(N)cc2c1cc(-c1cnc3c(ccn3C)c1)c(=O)n2C1CCCC1
82.1
4. COc1ncc(-c2cc3c(C)nc(N)cc3n(C3CCCC3)c2=O)cc1NS(=O)(=O)c1ccc(F)cc1F
33.9
5. COc1ccc(-c2cc3c(C)nc(N)cc3n(C3CCCC3)c2=O)cn1
39

Bench note: what IC50 did COc1ncc(-c2cc3c(C)nc(N)cc3n(C3CCCC3)c2=O)cc1F show?
160

Field entry: COc1ncc(-c2cnc3nc(N)nc(C)c3c2)cc1NS(=O)(=O)c1ccc(F)cc1F
35.3

Field entry: COc1ncc(-c2cc3c(C)nc(N)cc3n(C3CCCC3)c2=O)cn1
36.5
